# targetOfAssay: HLA-B*40:01
# methodNotes: IEDB peptide-MHC binding, purified MHC/direct/fluorescence; filed as Kd, often an IC50 or EC50 that approximates it; bounds were set here for any values at or beyond the usual limits of such assays
# particulars: source organism: Orthohantavirus andesense
measuredMetric: Kd

1) SIKFKRKLM = ≥ 20 µM

###

# targetOfAssay: HLA-B*44:02
# methodNotes: IEDB peptide-MHC binding, purified MHC/competitive/radioactivity; filed as Kd, often an IC50 or EC50 that approximates it; bounds were set here for any values at or beyond the usual limits of such assays
# particulars: source organism: Dengue virus 3 Martinique/1243/1999
measuredMetric: Kd (nM)

1) MEDKTPVTTW = 115

###

# targetOfAssay: HLA-A*03:01
# methodNotes: IEDB peptide-MHC binding, purified MHC/competitive/fluorescence; filed as Kd, often an IC50 or EC50 that approximates it; bounds were set here for any values at or beyond the usual limits of such assays
# particulars: source organism: Myxoma virus
measuredMetric: Kd

1) SVYGLMGFK = 9.2 nM

###

# targetOfAssay: HLA-A*29:02
# methodNotes: IEDB peptide-MHC binding, purified MHC/direct/fluorescence; filed as Kd, often an IC50 or EC50 that approximates it; bounds were set here for any values at or beyond the usual limits of such assays
# particulars: source organism: Salmonella enterica subsp. enterica serovar Typhimurium str. LT2
pKd: −log10 of the molar value.
measuredMetric: pKd

1) FKYDSTKPL = ≤ 4.70

###

# targetOfAssay: HLA-B*51:01
# methodNotes: IEDB peptide-MHC binding, purified MHC/competitive/fluorescence; filed as Kd, often an IC50 or EC50 that approximates it; bounds were set here for any values at or beyond the usual limits of such assays
# particulars: source organism: Orthohantavirus sinnombreense
pKd: −log10 of the molar value.
measuredMetric: pKd

1) HTVGLGQGY = ≤ 4.70

###

# targetOfAssay: HLA-A*02:11
# methodNotes: IEDB peptide-MHC binding, purified MHC/competitive/fluorescence; filed as Kd, often an IC50 or EC50 that approximates it; bounds were set here for any values at or beyond the usual limits of such assays
# particulars: source organism: Vibrio vulnificus CMCP6
pKd: −log10 of the molar value.
measuredMetric: pKd

1. LEMNDAPTA = ≤ 4.70

###

# targetOfAssay: HLA-B*58:01
# methodNotes: IEDB peptide-MHC binding, purified MHC/direct/fluorescence; filed as Kd, often an IC50 or EC50 that approximates it; bounds were set here for any values at or beyond the usual limits of such assays
# particulars: source organism: Yersinia pestis
measuredMetric: Kd

1) STFAASGPF = ≥ 20 µM

###

# targetOfAssay: HLA-A*02:01
# methodNotes: IEDB peptide-MHC binding, purified MHC/competitive/radioactivity; filed as Kd, often an IC50 or EC50 that approximates it; bounds were set here for any values at or beyond the usual limits of such assays
# particulars: source organism: Homo sapiens
pKd: −log10 of the molar value.
measuredMetric: pKd

1. ELQAALARV = 6.25

###

# targetOfAssay: HLA-A*02:12
# methodNotes: IEDB peptide-MHC binding, purified MHC/direct/fluorescence; filed as Kd, often an IC50 or EC50 that approximates it; bounds were set here for any values at or beyond the usual limits of such assays
# particulars: source organism: Orthohantavirus tulaense
measuredMetric: Kd

1) FGAAVSLLF = ≥ 20 µM
